Protocol Description: The drug is tested on Z-005 corresponding to metagenome with ENA study accession number: PRJEB37062 and ENA sample accession number: ERS12561805 for biotransformation under anaerobic condition. The drug concentrations were measured over 9 timepoints collected between 0 and 24 hours of incubation by liquid-chromatography-coupled mass spectrometry (LC–MS); also: call rule not given here
Measurement Conditions: 2 µM
Where a SMILES comes first, the peptide text is derived from it. [ ]: non-standard residue; d: D form. pGlu = O=C1CC[C@@H](C(=O)O)N1; Thz = O=C(O)[C@@H]1CSCN1
Assay Endpoint: Bacterial Biotransformation

Please look up its Bacterial Biotransformation: CN1C(=O)CCS(=O)(=O)C1c1ccc(Cl)cc1 (stereo not drawn) Compound NOT metabolized

Please look up its Bacterial Biotransformation: COc1ccccc1OCC(O)CN1CCN(CC(=O)Nc2c(C)cccc2C)CC1 (stereo not drawn) Compound NOT metabolized

Please look up its Bacterial Biotransformation: CCCCCOC(=O)Nc1nc(=O)n([C@@H]2O[C@H](C)[C@@H](O)[C@H]2O)cc1F Compound metabolized

Please look up its Bacterial Biotransformation: COc1ccc2c(c1OC)C(=O)O[C@@H]2[C@H]1c2c(cc3c(c2OC)OCO3)CCN1C Compound metabolized

Please look up its Bacterial Biotransformation: CC(C)OC(=O)C(C)(C)Oc1ccc(C(=O)c2ccc(Cl)cc2)cc1 [FENOFIBRATE] Compound metabolized

Please look up its Bacterial Biotransformation: CC(C)NCC(O)COc1ccc(COCCOC(C)C)cc1.CC(C)NCC(O)COc1ccc(COCCOC(C)C)cc1.O=C(O)/C=C/C(=O)O (stereo not drawn) [BISOPROLOL FUMARATE] Compound NOT metabolized

Please look up its Bacterial Biotransformation: O=C1CC[C@@H](C(=O)N2CSC[C@H]2C(=O)O)N1 [PIDOTIMOD] ([pGlu]-[Thz]-OH) Compound metabolized

Now look at this one.
Please look up its Bacterial Biotransformation: CC(C)(Oc1ccc(CCNC(=O)c2ccc(Cl)cc2)cc1)C(=O)O [BEZAFIBRATE] Compound NOT metabolized
